assay: metabolic stability and metabolite formation in human hepatocytes; assay type: in vitro ADME; settings: 1.0 million viable cells/ml, 37° C., 0-60 min
Readout label: half-life at 1 μM (h)
Numbers only here, please. The scale is h.

CN(C)CCc1c[nH]c2cccc(O)c12 [psilocin, 4-hydroxy-N,N-dimethyltryptamine]    2.97

Please find the next compound below.
Could you share which half-life at 1 μM value was measured for [2H]C([2H])([2H])N(C([2H])([2H])[2H])C([2H])([2H])C([2H])([2H])c1c[nH]c2cccc(O)c12 ?
4.97
